# Tested on: human peripheral blood mononuclear cells (PBMCs)
# Assay type: cell-based
# Condition parameters: 72 h
Measured property: LD0

// returns reported LD0 for input CC(=NN=C1SC(=Cc2cn(-c3ccccc3)nc2-c2ccccc2)C(=O)N1C1CCCCC1)c1nc2ccccc2[nH]1 [Compound 5v]
13.85 µg/mL

// returns reported LD0 for input CC(=NN=C1SC(=Cc2cn(-c3ccccc3)nc2-c2ccc(Cl)cc2)C(=O)N1c1ccc(Cl)cc1)c1nc2ccccc2[nH]1 [Compound 5q]
190.45 µg/mL

// returns reported LD0 for input CC(=NN=C1SC(=Cc2cn(-c3ccccc3)nc2-c2ccccc2)C(=O)N1c1ccc(Cl)cc1)c1cc2ccccc2o1 [Compound 5d]
11.43 µg/mL

// returns reported LD0 for input CC(=NN=C1SC(=Cc2cn(-c3ccccc3)nc2-c2ccccc2)C(=O)N1c1ccccc1)c1cc2ccccc2o1 [Compound 5a]
11.17 µg/mL

// returns reported LD0 for input CC(=NN=C1SC(=Cc2cn(-c3ccccc3)nc2-c2ccccc2)C(=O)N1C1CCCCC1)c1cc2ccccc2o1 [Compound 5j]
9.90 µg/mL

// returns reported LD0 for input CC(=NN=C1SC(=C2C(=O)Nc3ccccc32)C(=O)N1c1ccc(Cl)cc1)c1cc2ccccc2o1 [Compound 6b]
18.18 µg/mL

// returns reported LD0 for input COc1ccc(-c2nn(-c3ccccc3)cc2C=C2SC(=NN=C(C)c3cc4ccccc4o3)N(C3CCCCC3)C2=O)cc1 [Compound 5l]
8.33 µg/mL
